Data origin: paper PMC8266232

Test system: HePG2, HCT-116, MCF-7, PC3, HeLa cell lines
Procedure text: MTT antiproliferative assay, IC50 range over the cancer cell line panel
Type: cell-based
Protocol conditions: Homo sapiens, HePG2, HCT-116, MCF-7, PC3, HeLa, read-out: IC50 range over all tested cancer cell lines
Recorded metric: IC50

Input: # IC50 lookup, item N#Cc1c(-c2cc3ccccc3o2)ccnc1NCCCO
Output: 13.8 to 58.8 µM

Input: # iterate: CN(C)C/C=C/C(=O)Nc1cc2c(Nc3ccc(F)c(Cl)c3)ncnc2cc1O[C@H]1CCOC1 [Afatinib, reference compound]
Output: 5.5 to 11.2 µM

Input: Likewise for N#Cc1c(-c2cc3ccccc3o2)ccnc1NCCO ?
Output: 38.6 to 73.3 µM

---

Tested on: WI38 normal cell
Procedure text: MTT cytotoxicity on normal fibroblast cells
Format: cell-based
Protocol conditions: Homo sapiens, WI-38; MTT assay, non tumour normal cell WI38
For each record, write down the corresponding IC50.

Input: Look up IC50: N#Cc1c(-c2cc3ccccc3o2)ccnc1NCCO
Output: 59.5 µM

Input: Lookup N#Cc1c(-c2cc3ccccc3o2)ccnc1NCCc1ccccc1
Output: 94.5 µM

Input: // query: CC(=C(C#N)C#N)c1cc2ccccc2o1
Output: 86.5 µM

Input: Same for CN(C)/C=C/C(=C(C#N)C#N)c1cc2ccccc2o1
Output: 63.1 µM

---

Target or system: EGFR TK (Homo sapiens, UniProt P00533)
Sequence (P00533 25-1210): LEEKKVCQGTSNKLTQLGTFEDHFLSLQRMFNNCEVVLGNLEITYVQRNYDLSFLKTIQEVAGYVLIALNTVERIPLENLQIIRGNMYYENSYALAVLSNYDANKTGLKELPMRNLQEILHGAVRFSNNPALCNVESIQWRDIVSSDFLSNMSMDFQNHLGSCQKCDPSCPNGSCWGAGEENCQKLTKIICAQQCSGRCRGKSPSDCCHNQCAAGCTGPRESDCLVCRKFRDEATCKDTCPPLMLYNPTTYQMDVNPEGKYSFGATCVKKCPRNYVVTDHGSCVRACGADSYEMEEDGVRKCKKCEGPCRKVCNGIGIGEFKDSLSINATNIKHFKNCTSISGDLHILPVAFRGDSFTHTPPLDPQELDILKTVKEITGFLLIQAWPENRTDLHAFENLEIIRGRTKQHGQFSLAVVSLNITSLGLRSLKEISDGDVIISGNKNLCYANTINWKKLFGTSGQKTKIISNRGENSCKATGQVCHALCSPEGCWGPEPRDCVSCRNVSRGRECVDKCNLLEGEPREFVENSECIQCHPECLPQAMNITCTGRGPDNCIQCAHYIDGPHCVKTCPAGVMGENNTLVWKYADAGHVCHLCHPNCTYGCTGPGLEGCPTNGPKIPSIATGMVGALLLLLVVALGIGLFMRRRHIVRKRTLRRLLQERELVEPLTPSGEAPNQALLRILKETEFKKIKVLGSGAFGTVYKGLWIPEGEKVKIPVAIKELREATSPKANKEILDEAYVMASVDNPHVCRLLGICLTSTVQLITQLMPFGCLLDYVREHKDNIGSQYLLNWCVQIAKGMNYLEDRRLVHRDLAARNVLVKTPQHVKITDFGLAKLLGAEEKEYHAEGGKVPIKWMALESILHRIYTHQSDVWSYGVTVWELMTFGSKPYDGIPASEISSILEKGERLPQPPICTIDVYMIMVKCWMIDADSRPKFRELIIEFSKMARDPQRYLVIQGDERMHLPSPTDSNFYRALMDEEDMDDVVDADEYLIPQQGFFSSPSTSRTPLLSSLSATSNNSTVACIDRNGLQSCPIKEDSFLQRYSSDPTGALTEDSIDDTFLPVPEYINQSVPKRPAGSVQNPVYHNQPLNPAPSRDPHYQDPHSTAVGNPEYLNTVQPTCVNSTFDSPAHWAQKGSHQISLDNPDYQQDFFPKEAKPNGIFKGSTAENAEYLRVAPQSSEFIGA
Recorded metric: IC50 (µM)
Answer with a number only, understood to be in µM.

Input: Checklist item: IC50 tested on EGFR TK (Homo sapiens, UniProt P00533), entry CN(C)/C=C/C(=C(C#N)C#N)c1cc2ccccc2o1 , value?
Output: 0.93

---

System: PC3 cells (human prostate carcinoma)
Procedure text: MTT antiproliferative assay, PC3
Assay type: cell-based
Protocol conditions: PC-3, PC3, triplicate, read-out: In vitro cytotoxicity IC50, PC3
Kindly supply the reported log10 IC50 values for the records listed here.
Heads up: the numbers are on a log10 scale; they represent IC50 in µM.

Input: Give the measured log10 IC50 of N#Cc1c(-c2cc3ccccc3o2)ccnc1NCCc1ccccc1 .
Output: 1.27

Input: Next compound: CCCNc1nccc(-c2cc3ccccc3o2)c1C#N
Output: 1.98

Input: Now this one: CN(C)C/C=C/C(=O)Nc1cc2c(Nc3ccc(F)c(Cl)c3)ncnc2cc1O[C@H]1CCOC1 [Afatinib, reference compound]
Output: 0.88

Input: Try this compound next: N#Cc1c(-c2cc3ccccc3o2)ccnc1NC1CCCCC1
Output: 1.71

Input: Similarly, CN(C)/C=C/C(=C(C#N)C#N)c1cc2ccccc2o1 ?
Output: 1.65

Input: Param item: N#Cc1c(-c2cc3ccccc3o2)ccnc1NCc1ccccc1
Output: 1.49

Input: Queued: CC(=C(C#N)C#N)c1cc2ccccc2o1
Output: 1.43

Input: Now the same for CCNc1nccc(-c2cc3ccccc3o2)c1C#N
Output: 1.16

Input: Then what about the compound N#Cc1c(-c2cc3ccccc3o2)ccnc1NCCO ?
Output: 1.85

Input: Follow-up entry: COc1ccc(CCNc2nccc(-c3cc4ccccc4o3)c2C#N)cc1
Output: 1.97

Input: Same lookup for N#Cc1c(-c2cc3ccccc3o2)ccnc1NCCCO , please.
Output: 1.56
